# PROTOCOL NOTES: Cmax in rat at 20 mg/kg, po
# Type: ADME, organism-based
# Set-up: dose 20 mg/kg, route oral
# CONDITION DETAILS: in vivo
We'd kindly ask you to apply these Cmax classes: bucket A: < 2000 ng/mL; bucket B: ≥ 2000 ng/mL and < 9000 ng/mL; bucket C: ≥ 9000 ng/mL

Q) Which Cmax band matches O=C(NO)C1(S(=O)(=O)c2ccc(Oc3ccc(OC(F)(F)F)cc3)cc2)CCN(CCO)CC1 ?
A) bucket A

Q) Into which bin does this molecule go? O=C(NO)C1(S(=O)(=O)c2ccc(Oc3ccc4c(c3)OCCO4)cc2)CCN(C2CC2)CC1
A) bucket C

Q) Consider O=C(NO)C1(S(=O)(=O)c2ccc(Oc3ccc(OC(F)(F)F)cc3)cc2)CCN(Cc2ccccn2)CC1 . To which Cmax class does it belong?
A) bucket C

Q) Lab note: sort CC(C)N1CCC(C(=O)NO)(S(=O)(=O)c2ccc(Oc3ccc(C(F)(F)F)cc3)cc2)CC1 into the matching Cmax band.
A) bucket B

Q) Which of the defined bands does the recorded Cmax of O=C(NO)C1(S(=O)(=O)c2ccc(Oc3ccc(OC(F)(F)F)cc3)cc2)CCNCC1 sit within?
A) bucket A

Q) Determine which band this molecule sits in: CCOCCN1CCC(C(=O)NO)(S(=O)(=O)c2ccc(Oc3ccc(OC(F)(F)F)cc3)cc2)CC1
A) bucket B

Q) Any idea which band C#CCN1CCC(C(=O)NO)(S(=O)(=O)c2ccc(Oc3ccc(C(C)C)cc3)cc2)CC1 is in?
A) bucket B

Q) For the record O=C(NO)C1(S(=O)(=O)c2ccc(Oc3ccc4c(c3)OCO4)cc2)CCN(C2CC2)CC1 , report the class its Cmax corresponds to.
A) bucket C

Q) Category of O=C(NO)C1(S(=O)(=O)c2ccc(Oc3ccc4c(c3)OCO4)cc2)CCNCC1 , please.
A) bucket A

Q) Lab note: sort COCCN1CCC(C(=O)NO)(S(=O)(=O)c2ccc(Oc3ccc(SC(F)(F)F)cc3)cc2)CC1 into the matching Cmax band.
A) bucket C

Q) Category of O=C(NO)C1(S(=O)(=O)c2ccc(Oc3ccc(OC(F)(F)F)cc3)cc2)CCN(C2CC2)CC1 :
A) bucket B

Q) Which bin, given its Cmax, does O=C(NO)C1(S(=O)(=O)c2ccc(Oc3ccc(C(F)(F)F)cc3)cc2)CCNCC1 occupy?
A) bucket A

Q) Which of the defined bands does the recorded Cmax of CC(=O)N1CCC(C(=O)NO)(S(=O)(=O)c2ccc(Oc3ccc(OC(F)(F)F)cc3)cc2)CC1 sit within?
A) bucket A

Q) Entry COCCN1CCC(C(=O)NO)(S(=O)(=O)c2ccc(Oc3ccc(OC(F)(F)F)cc3)cc2)CC1 belongs to which category?
A) bucket C

Q) Into which bin does this molecule go? O=C(NO)C1(S(=O)(=O)c2ccc(Oc3ccc(OC(F)(F)F)cc3)cc2)CCN(Cc2cccnc2)CC1
A) bucket C

Q) Which class holds O=C(NO)C1(S(=O)(=O)c2ccc(Oc3ccc(C(F)(F)F)cc3)cc2)CCN(C2CC2)CC1 ?
A) bucket B

Q) Please let me know in which category the item O=C(NO)C1(S(=O)(=O)c2ccc(Oc3ccc(C(F)(F)F)cc3)cc2)CCN(CCN2CCOCC2)CC1 belongs.
A) bucket A

---

# System: Rattus norvegicus
# PROTOCOL NOTES: Plasma concentration in rat at 10 mg/mL, iv and po; also: time not given here
# Format: ADME, organism-based
# CONDITION DETAILS: in vivo
Cp vs 1000 ng/mL: less than gives Met; not less than gives Not met.

Q) Is the reported Cp for O=C(NO)C1(S(=O)(=O)c2ccc(Oc3ccc(SC(F)(F)F)cc3)cc2)CCOCC1 strictly below 1000 ng/mL?
A) Not met

Q) Just wondering, is Cp of O=C(NO)C1(S(=O)(=O)c2ccc(Oc3cccc(C(F)(F)F)c3)cc2)CCOCC1 below 1000 ng/mL?
A) Met

Q) Determine if O=C(NO)C1(S(=O)(=O)c2ccc(Oc3ccc(OC(F)(F)F)cc3)cc2)CCOCC1 shows Cp strictly lower than 1000 ng/mL.
A) Not met

Q) Item O=C(NO)C1(S(=O)(=O)c2ccc(Oc3ccc(C(F)(F)F)cc3)cc2)CCOCC1 : Cp beneath 1000 ng/mL, strictly?
A) Not met

Q) Say whether its Cp is strictly beneath 1000 ng/mL. Entry: O=C(NO)C1(S(=O)(=O)c2ccc(Oc3ccncc3)cc2)CCOCC1
A) Met

Q) Answer whether the compound O=C(NO)C1(S(=O)(=O)c2ccc(Oc3ccccc3)cc2)CCOCC1 has Cp strictly less than 1000 ng/mL
A) Met

Q) Please state whether Cp is below 1000 ng/mL for O=C(NO)C1(S(=O)(=O)c2ccc(Oc3ccc(Cl)cc3)cc2)CCOCC1
A) Met
